Reference for the values: patent US20240376185A1

Target: tetanus neurotoxin (TeNT), authentic tetanus holotoxin (Clostridium tetani, UniProt P04958 2-1315)
Sequence (P04958 2-457 limits assumed, chain 1 of 2): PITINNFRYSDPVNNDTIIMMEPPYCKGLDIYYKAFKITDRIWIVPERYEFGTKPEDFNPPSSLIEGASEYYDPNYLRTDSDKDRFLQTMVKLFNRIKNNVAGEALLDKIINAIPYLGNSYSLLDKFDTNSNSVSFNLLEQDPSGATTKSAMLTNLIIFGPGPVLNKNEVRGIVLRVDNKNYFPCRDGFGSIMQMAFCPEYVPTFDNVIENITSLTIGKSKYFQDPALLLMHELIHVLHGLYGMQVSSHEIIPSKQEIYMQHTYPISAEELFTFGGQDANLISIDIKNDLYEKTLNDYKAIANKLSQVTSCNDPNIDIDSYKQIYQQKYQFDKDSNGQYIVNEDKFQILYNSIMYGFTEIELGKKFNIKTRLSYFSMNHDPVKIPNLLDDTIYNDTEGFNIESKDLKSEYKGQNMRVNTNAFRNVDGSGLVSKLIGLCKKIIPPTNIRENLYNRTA
Sequence (P04958 458-1315 limits assumed, chain 2 of 2): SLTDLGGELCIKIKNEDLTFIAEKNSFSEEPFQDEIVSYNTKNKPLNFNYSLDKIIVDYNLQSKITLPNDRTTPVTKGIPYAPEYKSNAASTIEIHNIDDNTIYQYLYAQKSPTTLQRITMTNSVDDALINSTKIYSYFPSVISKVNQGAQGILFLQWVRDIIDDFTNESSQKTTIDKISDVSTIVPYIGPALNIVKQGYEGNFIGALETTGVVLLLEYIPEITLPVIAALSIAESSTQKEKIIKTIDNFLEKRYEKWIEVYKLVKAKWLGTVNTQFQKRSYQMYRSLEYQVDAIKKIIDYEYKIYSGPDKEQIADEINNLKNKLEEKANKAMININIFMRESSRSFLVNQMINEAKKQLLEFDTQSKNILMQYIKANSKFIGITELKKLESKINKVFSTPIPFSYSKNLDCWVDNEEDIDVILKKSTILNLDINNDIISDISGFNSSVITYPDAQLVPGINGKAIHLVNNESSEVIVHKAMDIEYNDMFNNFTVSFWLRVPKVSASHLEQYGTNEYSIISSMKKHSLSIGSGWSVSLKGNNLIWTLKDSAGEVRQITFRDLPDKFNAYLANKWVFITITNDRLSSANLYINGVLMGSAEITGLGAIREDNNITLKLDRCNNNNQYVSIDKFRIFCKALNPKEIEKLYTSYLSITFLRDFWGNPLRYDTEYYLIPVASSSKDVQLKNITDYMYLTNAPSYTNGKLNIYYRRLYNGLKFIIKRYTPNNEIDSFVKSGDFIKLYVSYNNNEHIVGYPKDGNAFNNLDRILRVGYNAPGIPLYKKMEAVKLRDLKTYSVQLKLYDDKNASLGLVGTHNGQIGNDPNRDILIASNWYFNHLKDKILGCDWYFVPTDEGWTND
Assay: ELISA: directly coated TeNT, anti-his6 PO
OBSERVABLE: Effective SDA Concentration at A450 0.15 (ng/mL)
Hi! Could you send only the number? It should be in ng/mL, unit omitted.

| BINDER | Effective SDA Concentration at A450 0.15 [ng/mL] |
| --- | --- |
| SVT06-GS2-SVA12M2-H6 (bispecific antibody) QVQLQESGGGSVQAGGSLRLSCTASELSYDDYTIAWFRRAAGEGRVEDGEGVASITKSYDRAYDNKINYGHSVKGRFTISRDNAKNTVYLQMTDLLPSDTAVYYCALDITPPGGVGASLTEGFLFDYWGQGTQVTVSSGGGGSGGGSEVQLVESGGGLVQAGGSLRLSCAASGRTFSYYPMAWFRQAPGQEREFVAAIIGADTTYYADSLKGRFTISRDNAKNMVYLQMNSLKPEDTAVYYCAARNTYWSDVYYREGQYTNWGQGTQVTVSSHHHHHH | 3.5 |

Now for the binder whose Effective SDA Concentration at A450 0.15 we want.
Problem: Find the measured Effective SDA Concentration at A450 0.15 of SVT16L (VHH) VHH: QVQLQESGGGSVQAGDSLRLSCAASGRTISNYAMGWFRQAPGKQREFVAAISRSDNTYYTDSVKGRFTISRDNAKNTLYLQMNSLKPEETAVYYCAADPNLMYESKWKYRALEAWGQGTLVTVSS and report it.
Solution: 1.4
